// data source = paper PMC5556071

- Assay comment: Plasma pharmacokinetics after single dose oral co-administration
- Assay type: in vivo, C57BL/6 mice
- Setup conditions: C57BL/6, mouse, 40 mg/kg, 3-AP 15, VE-822 40, dCKi 50 mg kg−1
Reported property: half-life (h)
Return type: number; implicit unit h.

# half-life (molecule: CNCc1ccc(-c2cc(-c3nc(-c4ccc(S(=O)(=O)C(C)C)cc4)cnc3N)on2)cc1 [VE-822] ) is 17

###

- Tested on: p185BCR-ABL Arf–/– cells
- Assay comment: Proliferation assay (CellTiter-Glo, 72 h)
- Assay type: cell-based
- Setup conditions: Mus musculus
Reported property: IC50

Recorded IC50 for `CNCc1ccc(-c2cc(-c3nc(-c4ccc(S(=O)(=O)C(C)C)cc4)cnc3N)on2)cc1` on p185BCR-ABL Arf–/– cells was ~300 nM

###

- Assay comment: Plasma pharmacokinetics after single dose oral co-administration
- Format: in vivo, C57BL/6 mice
- Setup conditions: 3-AP 15, VE-822 40, dCKi 50 mg kg−1
- Description: 3-AP, dCKi, VE-822 plasma concentrations were assessed at 0.5, 1, 2, 4, 6, 12 and 24 h following oral administration. Blood samples were collected in heparin-EDTA tubes by the retro-orbital technique and spun down to collect the supernatants. Four parts of methanol were added to plasma samples to precipitate proteins, and the supernatant was collected. […] Plasma concentrations were determined by comparison to previously generated standard curves. […]
Reported property: Cmax (µM)
Return type: number; implicit unit µM.

Compound string: COc1ccc(-c2nc([C@@H](C)Sc3nc(N)cc(N)n3)c(C)s2)cc1OCCNS(C)(=O)=O
Cmax (µM): 6.4

Okay, next one:
# Cmax (compound: `NC(=S)N/N=C/c1ncccc1N` ) is 2.3
